Test target: Mitogen-activated protein kinase 14 (Homo sapiens)
Sequence (Q16539 whole entry): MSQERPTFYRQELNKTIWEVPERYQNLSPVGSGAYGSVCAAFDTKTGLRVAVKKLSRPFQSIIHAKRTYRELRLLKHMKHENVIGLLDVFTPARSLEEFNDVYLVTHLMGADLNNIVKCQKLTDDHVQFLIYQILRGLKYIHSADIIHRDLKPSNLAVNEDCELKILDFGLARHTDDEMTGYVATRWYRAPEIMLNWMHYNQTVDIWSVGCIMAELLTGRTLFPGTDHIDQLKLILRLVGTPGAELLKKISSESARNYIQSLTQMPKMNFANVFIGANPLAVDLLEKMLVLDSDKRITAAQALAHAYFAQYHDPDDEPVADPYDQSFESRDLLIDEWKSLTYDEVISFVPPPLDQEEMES
Test protocol: Inhibition of p38-alpha MAP kinase
Entries and their pIC50 values follow.
pIC50 here: minus log base 10 of the concentration, concentration in moles per litre.

INSERT INTO measurements (smiles_input, test_target, quantity_kind, measured_value) VALUES
  ('O=C(c1cc2ccccc2[nH]1)N1CCc2c(cnn2-c2ccccc2Cl)C1', 'Mitogen-activated protein kinase 14 (Homo sapiens)', 'pIC50', 6.81),
  ('O=C(c1ccc2cc[nH]c2c1)N1CCc2c(cnn2-c2ccccc2Cl)C1', 'Mitogen-activated protein kinase 14 (Homo sapiens)', 'pIC50', 7.40),
  ('COc1cc2c(ccn2C)cc1C(=O)N1CCn2c(cnc2-c2ccc(F)cc2F)C1', 'Mitogen-activated protein kinase 14 (Homo sapiens)', 'pIC50', 7.42),
  ('CC(C)n1ccc2cc(C(=O)N3CCc4c(cnn4-c4ccccc4Cl)C3)ccc21', 'Mitogen-activated protein kinase 14 (Homo sapiens)', 'pIC50', 7.41),
  ('O=C(c1cccc2[nH]ccc12)N1CCc2c(cnn2-c2ccccc2Cl)C1', 'Mitogen-activated protein kinase 14 (Homo sapiens)', 'pIC50', 7.43);

I have this molecule here, CN(C)C(=O)C(=O)c1c[nH]c2ccc(C(=O)N3CCc4c(cnn4-c4ccccc4Cl)C3)cc12 , and I need its recorded pIC50. 7.43

I have this molecule here, CN(C)C(=O)C(=O)c1cn(C)c2cc(Cl)c(C(=O)N3CCc4c(cnn4-c4ccccc4Cl)C3)cc12 , and I need its recorded pIC50. 7.48
